Recorded pIC50 for the following compounds
# Measured On: HIV-1 RT (Human immunodeficiency virus type 1 group M subtype B, UniProt P03366)
# Assay Info: Heteropolymer HIV Reverse Transcriptase Assay: Inhibitor IC50 Determination
# Type: biochemical
# Measurement Parameters: purified recombinant enzyme, poly(rA)/oligo(dT)16 template-primer; read-out: Polymerase Inhibition IC50
pIC50: −log10 of the molar value.

Chem Smiles	Measured On	pIC50
CCc1c(C)[nH]c(=O)c(Br)c1Oc1cc(Cl)cc(C#N)c1	HIV-1 RT (Human immunodeficiency virus type 1 group M subtype B, UniProt P03366)	8.14
N#Cc1cc(Cl)cc(Oc2cc(CCc3nc4ccccc4o3)[nH]c(=O)c2Cl)c1	HIV-1 RT (Human immunodeficiency virus type 1 group M subtype B, UniProt P03366)	8.20
C=Cc1c(Oc2cc(Cl)cc(C#N)c2)c(CC)c[nH]c1=O	HIV-1 RT (Human immunodeficiency virus type 1 group M subtype B, UniProt P03366)	8.25
N#Cc1cc(Cl)cc(Oc2c(F)c(CCc3ccncc3)[nH]c(=O)c2Br)c1	HIV-1 RT (Human immunodeficiency virus type 1 group M subtype B, UniProt P03366)	8.82

###

# Measured On: HIV-1 RT (Human immunodeficiency virus type 1 group M subtype B)
# Assay Info: Heteropolymer HIV Reverse Transcriptase Assay: Inhibitor IC50 Determination
# Type: biochemical
pIC50: −log10 of the molar value.

Chem Smiles	pIC50
N#Cc1cc(Cl)cc(Oc2c(CSCc3ccccc3)c[nH]c(=O)c2Br)c1	9.40

###

# Tested on: HXB2-strain of HIV-1 in MT4 cells
# Assay Info: Antiviral assay: protection of HIV-1-infected MT4 cells from cell death (MTT)
# Assay type: cell-based
# Measurement Parameters: Human immunodeficiency virus 1, HXB2, MT4, read-out: IC50 Antiviral wt:fbs:10%
# Description: Anti-HIV-1 antiviral activity was assessed using an adaptation of the method of Pauwels et al. (Pauwels et al., J Virol Methods 1988 20:309-321). The method is based on the ability of compounds to protect HIV-1-infected T lymphoblastoid cells (MT4 cells) from cell-death mediated by the infection. […] The cell viability of a culture was determined by the uptake of soluble, yellow 3-[4,5-dimethylthiazol-2-yl]-2,5-diphenyltetrazolium bromide (MTT) and its reduction to a purple insoluble formazan salt. […]
Recorded IC50 for the following compounds
Quantity Name: IC50 (nM)

Compound	Unit Spec	Measured
N#Cc1cc(Cl)cc(Oc2cc(CCc3nc4ccccc4o3)[nH]c(=O)c2Cl)c1 [Compound I-19]	nM	6.9
N#Cc1cc(Cl)cc(Oc2c(F)c(CCc3ccncc3)[nH]c(=O)c2Br)c1 [Compound I-20]	nM	4.4
